- procedure.summary: Dose normalized excretion in human with creatinine clearance of 30-49 ml/min at 1500 mg, iv administered as single dose after 24 hrs
- Format: ADME, organism-based
- condition: in vivo, read-out: Activity
attribute.measured: dose excreted at 24 h

The compound identified as C[C@@H](O)[C@H]1C(=O)N2C(C(=O)O)=C(S[C@H]3C[C@@H](C(=O)N4CC[C@H](NC(=O)CNC(=N)N)C4)N(C)C3)[C@H](C)[C@H]12 registered its dose excreted at 24 h at 62.6%

====

- procedure.summary: AUC (infinity) in human with creatinine clearance of 50-79 ml/min at 1500 mg, iv administered as single dose measured after 60 mins
- Type: ADME, organism-based
- Set-up: dose 1500 mg, route intravenous, time infinity
- condition: plasma
attribute.measured: AUC(0-inf) (µg·h/mL)
Numbers only, in µg·h/mL.

Summary for this molecule, C[C@@H](O)[C@H]1C(=O)N2C(C(=O)O)=C(S[C@H]3C[C@@H](C(=O)N4CC[C@H](NC(=O)CNC(=N)N)C4)N(C)C3)[C@H](C)[C@H]12 : AUC(0-inf) is 304

====

- procedure.summary: Volume of distribution at steady state in human with creatinine clearance of =< 30 ml/min at 1500 mg, iv administered as single dose measured after 60 mins
- Type: ADME, organism-based
- condition: in vivo, read-out: Vdss
attribute.measured: Vd (L)
Answers are plain numbers, in L.

Data point: C[C@@H](O)[C@H]1C(=O)N2C(C(=O)O)=C(S[C@H]3C[C@@H](C(=O)N4CC[C@H](NC(=O)CNC(=N)N)C4)N(C)C3)[C@H](C)[C@H]12 [TOMOPENEM] ; Vd = 16.4

====

- procedure.summary: Total clearance in human with creatinine clearance of 50-79 ml/min at 1500 mg, iv administered as single dose measured after 60 mins
- Format: ADME, organism-based
- condition: in vivo
attribute.measured: clearance
Mention the unit after the number when you answer.

Lab note: C[C@@H](O)[C@H]1C(=O)N2C(C(=O)O)=C(S[C@H]3C[C@@H](C(=O)N4CC[C@H](NC(=O)CNC(=N)N)C4)N(C)C3)[C@H](C)[C@H]12 [TOMOPENEM] gave clearance of 84.7 mL/min

====

- procedure.summary: Apparent half-life in human with creatinine clearance of 30-49 ml/min at 1500 mg, iv administered as single dose
- Format: ADME, organism-based
- condition: in vivo
attribute.measured: half-life

C[C@@H](O)[C@H]1C(=O)N2C(C(=O)O)=C(S[C@H]3C[C@@H](C(=O)N4CC[C@H](NC(=O)CNC(=N)N)C4)N(C)C3)[C@H](C)[C@H]12 has a reported half-life of 275 min

====

- procedure.summary: AUC (infinity) in human with creatinine clearance of =< 30 ml/min at 1500 mg, iv administered as single dose measured after 60 mins
- Assay type: ADME, organism-based
- Parameters: dose 1500 mg, time infinity, route intravenous
- condition: plasma
attribute.measured: AUC(0-inf) (µg·h/mL)
One number for each entry, in µg·h/mL.

Value of measured AUC(0-inf) for the entry C[C@@H](O)[C@H]1C(=O)N2C(C(=O)O)=C(S[C@H]3C[C@@H](C(=O)N4CC[C@H](NC(=O)CNC(=N)N)C4)N(C)C3)[C@H](C)[C@H]12 [TOMOPENEM] : 1040

The reported numbers originate from ChEMBL document CHEMBL1275441.
